measuredOn: T1, Suc-AAPV-pNA
T1 chain: AAPV
assayConditions: scale: relative to the substrate with the highest activity
readoutName: relative activity (initial increase in OD405)
Lab note: record just the number, no unit beside it.

If you can, please state the reported relative activity (initial increase in OD405) value of Glutamyl endopeptidase II sprE from Streptomyces griseus (protein) VLGGGAIYGGGSRCSAAFNVTKGGARYFVTAGHCTNISANWSASSGGSVVGVREGTSFPTNDYGIVRYTDGSSPAGTVDLYNGSTQDISSAANAVVGQAIKKSGSTTKVTSGTVTAVNVTVNYGDGPVYNMVRTTACSAGGDSGGAHFAGSVALGIHSGSSGCSGTAGSAIHQPVTEALSAYGVTVY .
0

If you can, please state the reported relative activity (initial increase in OD405) value of Serine protease from Nocardiopsis sp NRRL 18262 (protein) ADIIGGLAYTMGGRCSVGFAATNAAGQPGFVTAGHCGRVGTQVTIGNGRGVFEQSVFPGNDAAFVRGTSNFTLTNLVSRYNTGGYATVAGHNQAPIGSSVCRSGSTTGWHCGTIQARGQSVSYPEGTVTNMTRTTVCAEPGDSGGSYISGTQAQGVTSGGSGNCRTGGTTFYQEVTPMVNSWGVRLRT .
0.0121

If you can, please state the reported relative activity (initial increase in OD405) value of Serine protease bppB from Bacillus pumilus JA16 (protein) VVIGDDGRTKVTNTRVAPYNSIAYITFGGSSCTGTLIAPNKILTNGHCVYNTATRSYSAKGSVYPGMNDSTAVNGSANMTEFYVPSGYINTGASQYDFAVIKTDTNIGNTVGYRSIRQVTNLTGTTIKISGYPGDKMRSTGKVSQWEMSGPVTREDTNLAYYTIDTFSGNSGSAMLDQNQQIVGVHNAGYSNGTINGGPKATAAFVEFINYAKAQ .
0
